Test: Drug recovery in healthy human urine at 250 mg, po administered as single dose after 0 to 168 hrs
Type: ADME, organism-based
Details: read-out: Drug recovery
Reported Endpoint: dose excreted (%)
Answers are plain numbers, in %.

# dose excreted lookup, item CS(=O)(=O)CCNCc1ccc(-c2ccc3ncn[14c](Nc4ccc(OCc5cccc(F)c5)c(Cl)c4)c3c2)o1.Cc1ccc(S(=O)(=O)O)cc1.O 1.16

---

Test: Drug recovery in healthy human urine at 250 mg, po administered as single dose after 0 to 48 hrs
Format: ADME, organism-based
Conditions: read-out: Drug recovery
Reported Endpoint: dose excreted (%)
One number for each entry, in %.

# dose excreted lookup, item CS(=O)(=O)CCNCc1ccc(-c2ccc3ncn[14c](Nc4ccc(OCc5cccc(F)c5)c(Cl)c4)c3c2)o1.Cc1ccc(S(=O)(=O)O)cc1.O 1.16

---

Assay: Drug recovery in healthy human feces at 250 mg, po administered as single dose after 0 to 72 hrs
Assay type: ADME, organism-based
Conditions: read-out: Drug recovery
Reported Endpoint: dose excreted (%)
One number for each entry, in %.

# dose excreted lookup, item CS(=O)(=O)CCNCc1ccc(-c2ccc3ncn[14c](Nc4ccc(OCc5cccc(F)c5)c(Cl)c4)c3c2)o1.Cc1ccc(S(=O)(=O)O)cc1.O 74.9

---

Assay: Drug recovery in healthy human urine at 250 mg, po administered as single dose after 0 to 144 hrs
Format: ADME, organism-based
Settings: read-out: Drug recovery
Reported Endpoint: dose excreted (%)
Answers are plain numbers, in %.

# dose excreted lookup, item CS(=O)(=O)CCNCc1ccc(-c2ccc3ncn[14c](Nc4ccc(OCc5cccc(F)c5)c(Cl)c4)c3c2)o1.Cc1ccc(S(=O)(=O)O)cc1.O 1.16

---

Assay: Drug recovery in healthy male human urine at 250 mg, po administered as single dose
Format: ADME, organism-based
Details: read-out: Drug recovery
Reported Endpoint: dose excreted (%)
Answers are plain numbers, in %.

# dose excreted lookup, item CS(=O)(=O)CCNCc1ccc(-c2ccc3ncn[14c](Nc4ccc(OCc5cccc(F)c5)c(Cl)c4)c3c2)o1.Cc1ccc(S(=O)(=O)O)cc1.O 1

---

Experiment: Total drug recovery in healthy female human at 250 mg, po administered as single dose
Assay type: ADME, organism-based
Conditions: in vivo, read-out: Drug recovery
Reported Endpoint: dose excreted (%)
Answers are plain numbers, in %.

# dose excreted lookup, item CS(=O)(=O)CCNCc1ccc(-c2ccc3ncn[14c](Nc4ccc(OCc5cccc(F)c5)c(Cl)c4)c3c2)o1.Cc1ccc(S(=O)(=O)O)cc1.O 91.5

---

Assay: Drug level in healthy human feces treated with [14C]lapatinib at 250 mg, po administered as single dose by LC-MS/MS method
Assay type: ADME, organism-based
Conditions: in vivo
Reported Endpoint: Drug uptake (%)
Numbers only, in %.

See these solved cases before continuing.
{"Cpd Smiles": "CS(=O)(=O)CCNCc1ccc(-c2ccc3ncnc(Nc4ccc(O)c(Cl)c4)c3c2)o1", "Drug uptake / %": 3.9}
{"Cpd Smiles": "O=C(O)c1ccc(-c2ccc3ncnc(Nc4ccc(OCc5cccc(F)c5)c(Cl)c4)c3c2)o1", "Drug uptake / %": 14}
{"Cpd Smiles": "Oc1ccc(-c2ccc3ncnc(Nc4ccc(OCc5cccc(F)c5)c(Cl)c4)c3c2)nc1", "Drug uptake / %": 6.3}

Consider the additional compound presented here.
# Drug uptake lookup, item CS(=O)(=O)CCNCc1ccc(-c2ccc3nc(O)nc(Nc4ccc(O)c(Cl)c4)c3c2)o1 3.3

---

Assay: Total drug recovery in healthy male human at 250 mg, po administered as single dose
Type: ADME, organism-based
Conditions: in vivo, read-out: Drug recovery
Reported Endpoint: dose excreted (%)
One number for each entry, in %.

# dose excreted lookup, item CS(=O)(=O)CCNCc1ccc(-c2ccc3ncn[14c](Nc4ccc(OCc5cccc(F)c5)c(Cl)c4)c3c2)o1.Cc1ccc(S(=O)(=O)O)cc1.O 94.6

---

Assay: Drug recovery in healthy human feces at 250 mg, po administered as single dose after 0 to 144 hrs
Assay type: ADME, organism-based
Conditions: read-out: Drug recovery
Reported Endpoint: dose excreted

# dose excreted lookup, item CS(=O)(=O)CCNCc1ccc(-c2ccc3ncn[14c](Nc4ccc(OCc5cccc(F)c5)c(Cl)c4)c3c2)o1.Cc1ccc(S(=O)(=O)O)cc1.O 91.4%

---

Assay: Drug recovery in healthy male human feces at 250 mg, po administered as single dose
Format: ADME, organism-based
Settings: read-out: Drug recovery
Reported Endpoint: dose excreted (%)
Numbers only, in %.

# dose excreted lookup, item CS(=O)(=O)CCNCc1ccc(-c2ccc3ncn[14c](Nc4ccc(OCc5cccc(F)c5)c(Cl)c4)c3c2)o1.Cc1ccc(S(=O)(=O)O)cc1.O 93.6

---

Assay: Total drug recovery in healthy human at 250 mg, po administered as single dose
Format: ADME, organism-based
Details: in vivo, read-out: Drug recovery
Reported Endpoint: dose excreted (%)
Numbers only, in %.

# dose excreted lookup, item CS(=O)(=O)CCNCc1ccc(-c2ccc3ncn[14c](Nc4ccc(OCc5cccc(F)c5)c(Cl)c4)c3c2)o1.Cc1ccc(S(=O)(=O)O)cc1.O 93

---

Assay: Drug recovery in healthy human feces at 250 mg, po administered as single dose after 0 to 48 hrs
Assay type: ADME, organism-based
Conditions: read-out: Drug recovery
Reported Endpoint: dose excreted (%)
Numbers only, in %.

# dose excreted lookup, item CS(=O)(=O)CCNCc1ccc(-c2ccc3ncn[14c](Nc4ccc(OCc5cccc(F)c5)c(Cl)c4)c3c2)o1.Cc1ccc(S(=O)(=O)O)cc1.O 45.3

---

Test: Drug recovery in healthy female human urine at 250 mg, po administered as single dose
Assay type: ADME, organism-based
Details: read-out: Drug recovery
Reported Endpoint: dose excreted
Kindly format the answer as number then unit.

# dose excreted lookup, item CS(=O)(=O)CCNCc1ccc(-c2ccc3ncn[14c](Nc4ccc(OCc5cccc(F)c5)c(Cl)c4)c3c2)o1.Cc1ccc(S(=O)(=O)O)cc1.O 1.3%

---

Experiment: Drug recovery in healthy human urine at 250 mg, po administered as single dose after 0 to 96 hrs
Type: ADME, organism-based
Details: read-out: Drug recovery
Reported Endpoint: dose excreted (%)
Give bare numbers, in %.

# dose excreted lookup, item CS(=O)(=O)CCNCc1ccc(-c2ccc3ncn[14c](Nc4ccc(OCc5cccc(F)c5)c(Cl)c4)c3c2)o1.Cc1ccc(S(=O)(=O)O)cc1.O 1.16

---

Test: Drug recovery in healthy human urine at 250 mg, po administered as single dose after 0 to 120 hrs
Type: ADME, organism-based
Conditions: read-out: Drug recovery
Reported Endpoint: dose excreted (%)
Give bare numbers, in %.

# dose excreted lookup, item CS(=O)(=O)CCNCc1ccc(-c2ccc3ncn[14c](Nc4ccc(OCc5cccc(F)c5)c(Cl)c4)c3c2)o1.Cc1ccc(S(=O)(=O)O)cc1.O 1.16
